Some molecules, each annotated with its measured log10(IC50).
Test system: HepG2
EXPERIMENT_DESCRIPTION: Cytotoxicity against human HepG2 cells after 48 hrs by MTT assay
Type: functional, cell-based
EXPERIMENTAL_SETUP: Homo sapiens, HepG2, 48 h; read-out: IC50
Units before log transform: µM; reported quantity: IC50; transform: log10.

MOLECULE	MEASURED_METRIC	VAL
CC1=NN(C(=O)c2ccc(C)cc2)C(c2ccccc2O)C1 (configuration not stated)	log10(IC50)	1.05

Inquiry: Given the entry CCC(=O)N1N=C(c2cc3ccccc3oc2=O)CC1c1ccccc1 (configuration not stated) , report its measured log10(IC50).
Reply text: 0.98

Inquiry: Entry CC(=O)Oc1ccccc1C1CC(C)=NN1C(=O)CN1CCC(O)CC1 (configuration not stated) : reported log10(IC50) = ?
Reply text: 1.09

Inquiry: Would you mind telling me what log10(IC50) value was observed for O=C(CCl)N1N=C(c2cc3ccccc3oc2=O)CC1c1ccccc1 (configuration not stated) ?
Reply text: 0.47

Inquiry: Value lookup for log10(IC50); key = CCNCC(=O)N1N=C(c2cc3ccccc3oc2=O)CC1c1ccccc1 (configuration not stated)
Reply text: 1.49

Inquiry: Dear colleague, I am looking for the recorded log10(IC50) of the following molecule: CC(=O)Oc1ccccc1C1CC(C)=NN1C(=O)CN(C(C)C)C(C)C (configuration not stated)
Reply text: 1.53

Inquiry: Please report the recorded log10(IC50) for CC(=O)Oc1ccccc1C1CC(C)=NN1C(=O)CN1CCCCC1 (configuration not stated) .
Reply text: 1.28

###

Item-by-item account of pIC50
EXPERIMENT_DESCRIPTION: Cytotoxicity against human PC3 cells after 48 hrs by MTT assay
Assay type: functional, cell-based, PC-3
EXPERIMENTAL_SETUP: Homo sapiens, PC-3, 48 h; read-out: IC50
On this scale, pIC50 is minus log10 of a concentration expressed in M (mol/L).

Look over these answered cases.
MOLECULE	pIC50
O=c1oc2ccccc2cc1C1=NN(S(=O)(=O)c2ccc([N+](=O)[O-])cc2)C(c2ccccc2)C1 (stereo not given)	4.33
O=C(CN1CCOCC1)N1N=C(c2cc3ccccc3oc2=O)CC1c1ccccc1C(F)(F)F (stereo not given)	4.92
CC1=NN(C(=O)COc2ccc(Cl)cc2)C(c2cc(Br)cc(Br)c2O)C1 (stereo not given)	4.40

Inquiry: Could you share which pIC50 value was measured for CC1=NN(C(=O)COc2ccc(Cl)cc2)C(c2cc(Br)ccc2O)C1 (stereo not given) ?
Reply text: 4.31

Inquiry: Value lookup for pIC50; key = COc1ccc(NCC(=O)N2N=C(C)CC2c2ccccc2O)cc1 (stereo not given)
Reply text: 4.29

###

Tested on: Bcap37
EXPERIMENT_DESCRIPTION: Cytotoxicity against human Bcap37 cells after 48 hrs by MTT assay
Format: functional, cell-based
EXPERIMENTAL_SETUP: Homo sapiens, Bcap37, 48 h; read-out: IC50
MEASURED_METRIC: IC50 (µM)
Kindly provide the numeric value in µM only, without the unit symbol.

COMPOUND	UNITS_OF_MEASURE	IC50
CC1=NN(C(=O)CCl)C(c2cc(Br)cc(Br)c2O)C1 (stereo not given)	µM	51.1
CC1=NN(C(=O)COc2ccc(Cl)cc2)C(c2cc(Br)ccc2O)C1 (stereo not given)	µM	36.8
CC1=NN(C(=O)CCl)C(c2cc(Br)ccc2O)C1 (stereo not given)	µM	32.3
CCN(CC)CC(=O)N1N=C(C)CC1c1ccccc1O (stereo not given)	µM	45.7
CC(=O)Oc1ccccc1C1CC(C)=NN1C(=O)CCl (stereo not given)	µM	6.81

Inquiry: Tell me the measured IC50 of CC1=NN(C(=O)c2ccccc2Cl)C(c2ccccc2O)C1 (stereo not given) , please.
Reply text: 30.2

Inquiry: Can you share its IC50? I mean this compound: CCN(CC)CC(=O)N1N=C(c2cc3ccccc3oc2=O)CC1c1ccccc1 (stereo not given)
Reply text: 3.5

Inquiry: Please look up its IC50: CC1=NN(C(=O)CN2CCCC(C)C2)C(c2ccccc2O)C1 (stereo not given)
Reply text: 35.6

Inquiry: What value of IC50 has been recorded for this entry: Cc1ccc(C(=O)N2N=C(c3cc4ccccc4oc3=O)CC2c2ccccc2)cc1 (stereo not given)
Reply text: 26.1

Inquiry: Query (compound): C=CCN(CC=C)CC(=O)N1N=C(C)CC1c1cc(Br)ccc1O (stereo not given) ; field requested: IC50
Reply text: 4.95

Inquiry: Quick one: IC50 for CC1=NN(C(=O)CN2CCCC2)C(c2ccccc2O)C1 (stereo not given) ?
Reply text: 5.35

Inquiry: # query: IC50 of entry CC1=NN(C(=O)CN2CCCCC2)C(c2ccccc2O)C1 (stereo not given)
Reply text: 33.1

Inquiry: Request the reported IC50 associated with CC1=NN(C(=O)COc2ccc(Cl)cc2)C(c2cc(Br)cc(Br)c2O)C1 (stereo not given)
Reply text: 46.3

Inquiry: Form field: reported IC50 of CC1=NN(C(=O)CCc2ccccc2)C(c2cc(Br)cc(Br)c2O)C1 (stereo not given)
Reply text: 27.2

Inquiry: I have this compound here, O=C(CN1CCC(Cl)CC1)N1N=C(c2cc3ccccc3oc2=O)CC1c1ccccc1 (stereo not given) , and I need its recorded IC50.
Reply text: 24.2

Inquiry: What value of measured IC50 is listed for CC1=NN(C(=O)CCc2ccccc2)C(c2ccccc2O)C1 (stereo not given) ?
Reply text: 25.7

Inquiry: For the compound shown here, CNCC(=O)N1N=C(c2cc3ccccc3oc2=O)CC1c1ccccc1 (stereo not given) , give the reported IC50.
Reply text: 4.22
